Target: full length human TREX1 (Homo sapiens, UniProt Q9NSU2)
Construct: N-terminally His-Tev tagged full length human TREX1; His-Tev (His tag with TEV protease site) (N)
Sequence (Q9NSU2 whole entry): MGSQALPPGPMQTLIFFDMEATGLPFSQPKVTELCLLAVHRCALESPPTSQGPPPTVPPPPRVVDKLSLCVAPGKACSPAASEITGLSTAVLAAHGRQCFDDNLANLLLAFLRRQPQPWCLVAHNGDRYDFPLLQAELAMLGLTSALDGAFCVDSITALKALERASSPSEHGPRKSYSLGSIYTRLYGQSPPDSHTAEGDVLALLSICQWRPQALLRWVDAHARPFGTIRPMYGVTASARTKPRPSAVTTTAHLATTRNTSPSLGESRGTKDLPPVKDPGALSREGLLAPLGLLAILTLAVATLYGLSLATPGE
Assay: TREX1 Biochemical Assay (fluorescence assay, degradation of dsDNA substrate)
Conditions: 150 pM TREX1, 60 nM dsDNA substrate, 25 minutes at room temperature; read-out: hTREX1 EC50
pEC50: −log10 of the molar value.

[
  {
    "COMPOUND SMILES": "O=C(c1ccc(F)c(Cl)c1)N(Cc1cccnc1)Cc1ccc(Cl)cc1Cl",
    "pEC50": "5.00 to 6.00"
  },
  {
    "COMPOUND SMILES": "O=C(c1ccc(F)c(F)c1)N(Cc1cccnc1)Cc1ccc(Cl)cc1Cl",
    "pEC50": "5.00 to 6.00"
  },
  {
    "COMPOUND SMILES": "O=C(c1cccc(F)c1)N(Cc1ccc(CO)nc1)Cc1ccc(Cl)cc1Cl",
    "pEC50": "5.00 to 6.00"
  },
  {
    "COMPOUND SMILES": "COc1cccc(C(=O)N(Cc2cccnc2)Cc2ccc(Cl)cc2Cl)c1",
    "pEC50": "5.00 to 6.00"
  },
  {
    "COMPOUND SMILES": "CC[C@@H](c1cccc(Cl)c1Cl)N(Cc1cnc(C(=O)O)c(N)c1)C(=O)c1cc(F)cc(F)c1",
    "pEC50": "> 7.00"
  },
  {
    "COMPOUND SMILES": "O=C(c1cccc(F)c1)N(Cc1cccnc1)CC1CCCCC1",
    "pEC50": "< 5.00"
  },
  {
    "COMPOUND SMILES": "Cc1ncc(C(=O)N(Cc2cccnc2)Cc2ccc(Cl)cc2Cl)cn1",
    "pEC50": "< 5.00"
  },
  {
    "COMPOUND SMILES": "O=C(c1cccc(F)c1)N(Cc1ccc(C(F)(F)F)nc1)Cc1ccc(Cl)cc1Cl",
    "pEC50": "< 5.00"
  }
]

This collection of values is drawn from patent US20230233541A1.
